Reference source for all entries: patent US20210388087A1

system_under_test: T1, Human CD3eg linker (human)
T1 construct: Single chain: epsilon and gamma subunits of human CD3 joined by a 29-mer linker, Flag-tag at the C-terminus; also called recombinant human CD3
T1 chain: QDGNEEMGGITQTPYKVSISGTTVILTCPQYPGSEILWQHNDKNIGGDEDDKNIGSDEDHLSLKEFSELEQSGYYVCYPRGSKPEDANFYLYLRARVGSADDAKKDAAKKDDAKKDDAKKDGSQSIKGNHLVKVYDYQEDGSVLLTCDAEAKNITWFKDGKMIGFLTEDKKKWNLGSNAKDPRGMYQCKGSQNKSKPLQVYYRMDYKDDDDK
measurement_protocol: Biacore SPR, vs template H183/L072
endpoint: fold change of affinity (fold)
Quick reminder: number only, in fold, skip the unit.

binder	result_units	fold change of affinity
H183/L072 VH N31K (antibody, name in Kabat numbering, V domains shown) VH: QVQLVESGGGLVQPGRSLRLSCAASGFTFSKAWMHWVRQAPGKGLEWVAQIKDKGNAYAAYYAPSVKGRFTISRDDSKNSIYLQMNSLKTEDTAVYYCHYVHYASASTVLPAFGVDAWGQGTTVTVSS VL: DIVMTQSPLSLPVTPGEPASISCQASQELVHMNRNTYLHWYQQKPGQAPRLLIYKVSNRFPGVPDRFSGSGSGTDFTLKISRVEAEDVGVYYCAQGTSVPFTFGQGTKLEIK	fold	0.4
H183/L072 VH H93M (antibody, name in Kabat numbering, V domains shown) VH: QVQLVESGGGLVQPGRSLRLSCAASGFTFSNAWMHWVRQAPGKGLEWVAQIKDKGNAYAAYYAPSVKGRFTISRDDSKNSIYLQMNSLKTEDTAVYYCMYVHYASASTVLPAFGVDAWGQGTTVTVSS VL: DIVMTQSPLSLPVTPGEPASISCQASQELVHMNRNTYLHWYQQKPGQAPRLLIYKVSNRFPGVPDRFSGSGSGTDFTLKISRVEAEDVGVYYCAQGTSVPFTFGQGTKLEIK	fold	0
H183/L072 VH V100cA (antibody, name in Kabat numbering, V domains shown) VH: QVQLVESGGGLVQPGRSLRLSCAASGFTFSNAWMHWVRQAPGKGLEWVAQIKDKGNAYAAYYAPSVKGRFTISRDDSKNSIYLQMNSLKTEDTAVYYCHYVHYASASTALPAFGVDAWGQGTTVTVSS VL: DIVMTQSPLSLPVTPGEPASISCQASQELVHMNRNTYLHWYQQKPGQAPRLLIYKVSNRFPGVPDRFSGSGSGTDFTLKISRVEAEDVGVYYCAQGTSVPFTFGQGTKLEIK	fold	1.1
H183/L072 VH Y97I (antibody, name in Kabat numbering, V domains shown) VH: QVQLVESGGGLVQPGRSLRLSCAASGFTFSNAWMHWVRQAPGKGLEWVAQIKDKGNAYAAYYAPSVKGRFTISRDDSKNSIYLQMNSLKTEDTAVYYCHYVHIASASTVLPAFGVDAWGQGTTVTVSS VL: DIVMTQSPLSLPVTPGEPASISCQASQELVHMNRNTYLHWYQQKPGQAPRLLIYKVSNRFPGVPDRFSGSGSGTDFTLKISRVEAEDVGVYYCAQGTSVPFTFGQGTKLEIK	fold	0
H183/L072 VH Y55L (antibody, name in Kabat numbering, V domains shown) VH: QVQLVESGGGLVQPGRSLRLSCAASGFTFSNAWMHWVRQAPGKGLEWVAQIKDKGNALAAYYAPSVKGRFTISRDDSKNSIYLQMNSLKTEDTAVYYCHYVHYASASTVLPAFGVDAWGQGTTVTVSS VL: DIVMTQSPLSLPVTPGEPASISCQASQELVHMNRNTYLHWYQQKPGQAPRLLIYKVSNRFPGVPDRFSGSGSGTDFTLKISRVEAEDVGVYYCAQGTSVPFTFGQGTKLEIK	fold	0.5

**Query** Consider the binder shown here: H183/L072 VH H35Y (antibody, name in Kabat numbering, V domains shown) VH: QVQLVESGGGLVQPGRSLRLSCAASGFTFSNAWMYWVRQAPGKGLEWVAQIKDKGNAYAAYYAPSVKGRFTISRDDSKNSIYLQMNSLKTEDTAVYYCHYVHYASASTVLPAFGVDAWGQGTTVTVSS VL: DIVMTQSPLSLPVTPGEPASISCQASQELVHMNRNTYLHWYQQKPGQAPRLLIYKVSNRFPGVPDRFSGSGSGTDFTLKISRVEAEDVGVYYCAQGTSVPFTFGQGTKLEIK What is its recorded fold change of affinity?
**Result** 0

**Query** Consider the binder shown here: H183/L072 VH A60R (antibody, name in Kabat numbering, V domains shown) VH: QVQLVESGGGLVQPGRSLRLSCAASGFTFSNAWMHWVRQAPGKGLEWVAQIKDKGNAYAAYYRPSVKGRFTISRDDSKNSIYLQMNSLKTEDTAVYYCHYVHYASASTVLPAFGVDAWGQGTTVTVSS VL: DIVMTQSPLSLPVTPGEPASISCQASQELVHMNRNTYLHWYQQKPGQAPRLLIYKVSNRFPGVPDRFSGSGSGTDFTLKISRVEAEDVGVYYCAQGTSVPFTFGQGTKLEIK What is its recorded fold change of affinity?
**Result** 1

**Query** Consider the binder shown here: H183/L072 VH F29W (antibody, name in Kabat numbering, V domains shown) VH: QVQLVESGGGLVQPGRSLRLSCAASGFTWSNAWMHWVRQAPGKGLEWVAQIKDKGNAYAAYYAPSVKGRFTISRDDSKNSIYLQMNSLKTEDTAVYYCHYVHYASASTVLPAFGVDAWGQGTTVTVSS VL: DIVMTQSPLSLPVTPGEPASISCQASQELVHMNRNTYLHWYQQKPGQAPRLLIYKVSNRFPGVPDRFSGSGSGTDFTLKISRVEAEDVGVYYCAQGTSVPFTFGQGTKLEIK What is its recorded fold change of affinity?
**Result** 0.5

**Query** Consider the binder shown here: H183/L072 VH N53F (antibody, name in Kabat numbering, V domains shown) VH: QVQLVESGGGLVQPGRSLRLSCAASGFTFSNAWMHWVRQAPGKGLEWVAQIKDKGFAYAAYYAPSVKGRFTISRDDSKNSIYLQMNSLKTEDTAVYYCHYVHYASASTVLPAFGVDAWGQGTTVTVSS VL: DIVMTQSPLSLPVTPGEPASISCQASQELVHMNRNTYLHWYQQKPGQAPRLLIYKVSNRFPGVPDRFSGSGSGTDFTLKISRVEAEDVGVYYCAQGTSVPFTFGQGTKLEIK What is its recorded fold change of affinity?
**Result** 0.8

**Query** Consider the binder shown here: H183/L072 VH F27T (antibody, name in Kabat numbering, V domains shown) VH: QVQLVESGGGLVQPGRSLRLSCAASGTTFSNAWMHWVRQAPGKGLEWVAQIKDKGNAYAAYYAPSVKGRFTISRDDSKNSIYLQMNSLKTEDTAVYYCHYVHYASASTVLPAFGVDAWGQGTTVTVSS VL: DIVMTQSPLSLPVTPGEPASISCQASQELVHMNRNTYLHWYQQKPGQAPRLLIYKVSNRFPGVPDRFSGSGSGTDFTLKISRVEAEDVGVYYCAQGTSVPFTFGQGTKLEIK What is its recorded fold change of affinity?
**Result** 0
